target_desc: HIV-1 Env of isolate MGRM-C-015 (subtype C) (HIV-1)
assay_notes: cell-based or functional assay
experimental_endpoint: IC50 (µg/mL), pseudovirus neutralization

Reference set (3 entries):
PGT-123 (antibody, V domains shown) VH: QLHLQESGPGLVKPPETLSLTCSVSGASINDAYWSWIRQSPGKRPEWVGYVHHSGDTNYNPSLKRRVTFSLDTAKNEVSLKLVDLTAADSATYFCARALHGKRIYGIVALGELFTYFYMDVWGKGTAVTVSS VL: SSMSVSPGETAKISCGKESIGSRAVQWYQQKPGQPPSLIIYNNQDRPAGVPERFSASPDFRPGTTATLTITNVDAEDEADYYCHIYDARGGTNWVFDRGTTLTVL    13.1 µg/mL
PGT-127 (antibody, V domains shown) VH: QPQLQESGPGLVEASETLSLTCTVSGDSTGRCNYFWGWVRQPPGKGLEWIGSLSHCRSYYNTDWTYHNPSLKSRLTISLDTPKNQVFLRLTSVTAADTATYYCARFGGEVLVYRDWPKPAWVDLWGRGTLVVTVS VL: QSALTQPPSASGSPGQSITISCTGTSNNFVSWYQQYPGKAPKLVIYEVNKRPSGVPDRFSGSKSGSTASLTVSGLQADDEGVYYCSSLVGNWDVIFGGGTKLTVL    > 50 µg/mL
PGT-125 (antibody, V domains shown) VH: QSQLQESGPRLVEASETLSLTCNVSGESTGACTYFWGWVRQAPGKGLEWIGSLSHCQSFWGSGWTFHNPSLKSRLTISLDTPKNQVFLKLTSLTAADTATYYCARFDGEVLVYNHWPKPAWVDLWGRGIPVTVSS VL: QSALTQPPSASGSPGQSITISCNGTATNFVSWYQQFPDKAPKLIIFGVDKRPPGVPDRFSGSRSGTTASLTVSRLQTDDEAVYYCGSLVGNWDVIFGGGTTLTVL    > 50 µg/mL

Let us move to another entry and its IC50 (µg/mL), pseudovirus neutralization.
INPUT: Quickly give me recorded IC50 (µg/mL), pseudovirus neutralization for PGT-126 (antibody, V domains shown) VH: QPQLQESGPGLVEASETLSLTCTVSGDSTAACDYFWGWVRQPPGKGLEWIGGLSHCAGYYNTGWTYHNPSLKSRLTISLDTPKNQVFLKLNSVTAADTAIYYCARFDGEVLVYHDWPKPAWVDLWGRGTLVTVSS VL: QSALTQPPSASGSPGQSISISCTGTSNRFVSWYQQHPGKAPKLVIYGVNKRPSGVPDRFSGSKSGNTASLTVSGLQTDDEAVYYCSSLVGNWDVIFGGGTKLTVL
OUTPUT: 3.14 µg/mL

Hey, just so you know, these numbers are from patent US20240132578A1.
